ASSAYED_TARGET: T1, recombinant human IL-13 receptor alpha 2 (hIL-13-Rα2) (human, UniProt Q14627 27-343)
T1 construct: Recombinant soluble antigen coated on ELISA plates or used in Biacore; also called rec hIL-13Rα2; rhIL-13Rα2
T1 sequence (looked up): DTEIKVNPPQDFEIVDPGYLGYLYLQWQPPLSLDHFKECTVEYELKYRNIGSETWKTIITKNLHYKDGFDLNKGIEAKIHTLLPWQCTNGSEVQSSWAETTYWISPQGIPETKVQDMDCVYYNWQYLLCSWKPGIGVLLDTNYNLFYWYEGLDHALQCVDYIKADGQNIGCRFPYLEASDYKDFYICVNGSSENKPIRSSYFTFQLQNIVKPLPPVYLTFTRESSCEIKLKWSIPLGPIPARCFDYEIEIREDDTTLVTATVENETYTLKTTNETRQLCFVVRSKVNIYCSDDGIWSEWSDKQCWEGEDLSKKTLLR
ASSAY_TEXT: direct ELISA on rhIL-13Rα2 (given as ED50)
The following binders are listed with their measured EC50 values.
READOUT_TYPE: EC50

1. hu07 heavy chain v1.5 / light chain v1.0 (antibody, IgG1, V domains shown, hIgG1 constant region and hIg Kappa constant region; also called hu07v1.5/v1.0) VH: EVQLVESGGGLVQPGGSLRLSCAASGFSLTKYGVHWVRQAPGKGLEWVGVKWAGGSTDYNSALMSRFTISKDNAKNSLYLQMNSLRAEDTAVYYCARDHRDAMDYWGQGTLVTVSS VL: DIQMTQSPSSLSASVGDRVTITCTASLSVSSTYLHWYQQKPGKAPKLLIYSTSNLASGVPSRFSGSGSGTDFTLTISSLQPEDFATYYCHQYHRSPLTFGGGTKVEIK    0.754 nM
2. hu07 heavy chain v1.5 / light chain v1.1 (antibody, IgG1, V domains shown, hIgG1 constant region and hIg Kappa constant region; also called hu07v1.5/v1.1) VH: EVQLVESGGGLVQPGGSLRLSCAASGFSLTKYGVHWVRQAPGKGLEWVGVKWAGGSTDYNSALMSRFTISKDNAKNSLYLQMNSLRAEDTAVYYCARDHRDAMDYWGQGTLVTVSS VL: DIQMTQSPSSLSASVGDRVTITCTASLSVSSTYLHWYQQKPGSSPKLLIYSTSNLASGVPSRFSGSGSGTSFTLTISSLQPEDFATYYCHQYHRSPLTFGGGTKVEIK    1.21 nM
3. hu07 heavy chain v1.5 paired with chimeric light chain (antibody, V domains shown, hIgG1 constant region; the chimeric light chain is the mu07 VL with human kappa constant region; also called hu07v1.5/kc; hu07 v1.5 paired with chimeric light chain Kc) VH: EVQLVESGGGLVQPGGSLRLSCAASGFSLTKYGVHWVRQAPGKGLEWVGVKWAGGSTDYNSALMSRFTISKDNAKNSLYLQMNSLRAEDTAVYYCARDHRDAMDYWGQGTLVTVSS VL: QVVLTQSPAIMSASPGERVTMTCTASLSVSSTYLHWYHQKPGSSPKLWIYSTSNLASGVPARFSGSGSGTSYSLTISSMEAEDAATYYCHQYHRSPLTFGSGTKLELK    0.183 nM
4. chimeric antibody ch07 (antibody, human IgG1, V domains shown, also called chimeric antibody 07; biotin-ch07 (biotinylated form)) VH: QVQLKESGPGLVAPSQSLSINCTVSGFSLTKYGVHWIRQSPGKGLEWLGVKWAGGSTDYNSALMSRLTISKDNNKSQVFLKMNSLQSDDSAMYYCARDHRDAMDYWGQGTSVTVSS VL: QVVLTQSPAIMSASPGERVTMTCTASLSVSSTYLHWYHQKPGSSPKLWIYSTSNLASGVPARFSGSGSGTSYSLTISSMEAEDAATYYCHQYHRSPLTFGSGTKLELK    0.217 nM
